Assign solubility (g/100 g solution) to each entry below.
Assay: xn = mol fraction of the nth substance listed, in the solute-free solvent
Details: 298.15 K; x2 = 0.5
Lab note: record the figure alone, no unit after it.

Item: Cc1nc(C)c(C)nc1C + CO + CC#N | solubility (g/100 g solution): 48.2

Item: O=CC(O)C(O)C(O)CO (stereo not given) + CCO + ClCCl | solubility (g/100 g solution): 2.77

Item: Cl.NC(C=O)C(O)C(O)C(O)CO (stereo not given) + O + CCO | solubility (g/100 g solution): 1.68

Item: Cc1nc(C)c(C)nc1C + CCCCO + CC#N | solubility (g/100 g solution): 41.5

Item: O=CC(O)C(O)C(O)CO (stereo not given) + CO + ClCCl | solubility (g/100 g solution): 4.3

----------
Test: xn = mol fraction of the nth substance listed, in the solute-free solvent
Conditions: 313.15 K; x2 = 0.5
Assign solubility (g/100 g solution) to each entry below.

Item: Cc1nc(C)c(C)nc1C + CCCCO + CC#N | solubility (g/100 g solution): 53.6

Item: O=CC(O)C(O)C(O)CO (stereo not given) + CCO + CCCCCC | solubility (g/100 g solution): 0.925

Item: Cc1nc(C)c(C)nc1C + CO + CC#N | solubility (g/100 g solution): 63.5

Item: O=CC(O)C(O)C(O)CO (stereo not given) + CC(C)O + CCCCCC | solubility (g/100 g solution): 0.76

Item: Cl.NC(C=O)C(O)C(O)C(O)CO (stereo not given) + O + CCO | solubility (g/100 g solution): 2.32

----------
Experiment: xn = mol fraction of the nth substance listed, in the solute-free solvent
Details: 303.15 K; x2 = 0.4
measurementType: solubility (g/100 g solution)
Lab note: record the figure alone, no unit after it.

Item: Cc1nc(C)c(C)nc1C + CCCCO + CC#N | solubility (g/100 g solution): 44.8

Item: O=CC(O)C(O)C(O)CO (stereo not drawn) + CO + ClCCl | solubility (g/100 g solution): 3.22

Item: O=CC(O)C(O)C(O)CO (stereo not drawn) + CCO + ClCCl | solubility (g/100 g solution): 2.28

----------
Assay: xn = mol fraction of the nth substance listed, in the solute-free solvent
Details: 313.15 K; x2 = 0.8
Entry flag: satisfied if solubility (g/100 g solution) reaches 20; not satisfied if it does not.

// inclusive: solubility (g/100 g solution) at least 20? input: O=CC(O)C(O)C(O)CO (configuration not stated) + CCO + CCCCCC
not satisfied

// inclusive: solubility (g/100 g solution) at least 20? input: Cc1nc(C)c(C)nc1C + CCCCO + CC#N
satisfied

// inclusive: solubility (g/100 g solution) at least 20? input: Cl.NC(C=O)C(O)C(O)C(O)CO (configuration not stated) + O + CCO
not satisfied

// inclusive: solubility (g/100 g solution) at least 20? input: Cc1nc(C)c(C)nc1C + CO + CC#N
satisfied

// inclusive: solubility (g/100 g solution) at least 20? input: O=c1cc(-c2ccccc2)oc2cc(O)c(O)c(O)c12 + CCO + O
not satisfied

// inclusive: solubility (g/100 g solution) at least 20? input: O=CC(O)C(O)C(O)CO (configuration not stated) + CC(C)O + CCCCCC
not satisfied

// inclusive: solubility (g/100 g solution) at least 20? input: Cl.NC(C=O)C(O)C(O)C(O)CO (configuration not stated) + O + CO
not satisfied

----------
Assay: xn = mol fraction of the nth substance listed, in the solute-free solvent
Details: 288.15 K; x2 = 0.8
Assign solubility (g/100 g solution) to each entry below.

Item: Cl.NC(C=O)C(O)C(O)C(O)CO (configuration not stated) + O + CCO | solubility (g/100 g solution): 7.72

Item: O=c1cc(-c2ccccc2)oc2cc(O)c(O)c(O)c12 + CCO + O | solubility (g/100 g solution): 0.525

Item: Cl.NC(C=O)C(O)C(O)C(O)CO (configuration not stated) + O + CO | solubility (g/100 g solution): 11.5

Item: Cc1nc(C)c(C)nc1C + CO + CC#N | solubility (g/100 g solution): 45.7

Item: Cc1nc(C)c(C)nc1C + CCCCO + CC#N | solubility (g/100 g solution): 33

Item: O=CC(O)C(O)C(O)CO (configuration not stated) + CCO + ClCCl | solubility (g/100 g solution): 2.57

Item: O=CC(O)C(O)C(O)CO (configuration not stated) + CO + ClCCl | solubility (g/100 g solution): 8.86

----------
Assay: xn = mol fraction of the nth substance listed, in the solute-free solvent
Conditions: 298.15 K; x2 = 0.9
Assign solubility (g/100 g solution) to each entry below.

Item: Cc1nc(C)c(C)nc1C + CCCCO + CC#N | solubility (g/100 g solution): 39.2

Item: Cc1nc(C)c(C)nc1C + CO + CC#N | solubility (g/100 g solution): 54.9

Item: O=CC(O)C(O)C(O)CO (stereo unspecified) + CO + ClCCl | solubility (g/100 g solution): 20.1

Item: Cl.NC(C=O)C(O)C(O)C(O)CO (stereo unspecified) + O + CO | solubility (g/100 g solution): 19.7

Item: O=CC(O)C(O)C(O)CO (stereo unspecified) + CCO + ClCCl | solubility (g/100 g solution): 4.58

Item: Cl.NC(C=O)C(O)C(O)C(O)CO (stereo unspecified) + O + CCO | solubility (g/100 g solution): 16.1

----------
Assign solubility (g/100 g solution) to each entry below.
Assay: xn = mol fraction of the nth substance listed, in the solute-free solvent
Settings: 283.15 K; x2 = 0.9
Lab note: record the figure alone, no unit after it.

Item: O=CC(O)C(O)C(O)CO (stereo not drawn) + CCO + ClCCl | solubility (g/100 g solution): 2.24

Item: Cc1nc(C)c(C)nc1C + CO + CC#N | solubility (g/100 g solution): 42.7

Item: Cl.NC(C=O)C(O)C(O)C(O)CO (stereo not drawn) + O + CCO | solubility (g/100 g solution): 12.3

Item: Cl.NC(C=O)C(O)C(O)C(O)CO (stereo not drawn) + O + CO | solubility (g/100 g solution): 15.2

Item: Cc1nc(C)c(C)nc1C + CCCCO + CC#N | solubility (g/100 g solution): 27.9

Item: O=CC(O)C(O)C(O)CO (stereo not drawn) + CC(C)O + CCCCCC | solubility (g/100 g solution): 0.82

Item: O=CC(O)C(O)C(O)CO (stereo not drawn) + CCO + CCCCCC | solubility (g/100 g solution): 1.73

Item: O=CC(O)C(O)C(O)CO (stereo not drawn) + CO + ClCCl | solubility (g/100 g solution): 9.89

----------
Experiment: xn = mol fraction of the nth substance listed, in the solute-free solvent
Settings: 323.15 K; x2 = 0.2
measurementType: solubility (g/100 g solution)
Lab note: record the figure alone, no unit after it.

Item: Cl.NC(C=O)C(O)C(O)C(O)CO (centres undefined) + O + CO | solubility (g/100 g solution): 1.83

Item: O=CC(O)C(O)C(O)CO (centres undefined) + CCO + CCCCCC | solubility (g/100 g solution): 0.234

Item: O=c1cc(-c2ccccc2)oc2cc(O)c(O)c(O)c12 + CCO + O | solubility (g/100 g solution): 0.179

Item: O=CC(O)C(O)C(O)CO (centres undefined) + CC(C)O + CCCCCC | solubility (g/100 g solution): 0.247

----------
Experiment: xn = mol fraction of the nth substance listed, in the solute-free solvent
Conditions: 323.15 K; x2 = 0.6
measurementType: solubility (g/100 g solution)

Item: Cl.NC(C=O)C(O)C(O)C(O)CO (stereo not given) + O + CCO | solubility (g/100 g solution): 5.43

Item: O=c1cc(-c2ccccc2)oc2cc(O)c(O)c(O)c12 + CCO + O | solubility (g/100 g solution): 1.23

Item: Cl.NC(C=O)C(O)C(O)C(O)CO (stereo not given) + O + CO | solubility (g/100 g solution): 10.9

Item: O=CC(O)C(O)C(O)CO (stereo not given) + CC(C)O + CCCCCC | solubility (g/100 g solution): 1.83

Item: O=CC(O)C(O)C(O)CO (stereo not given) + CCO + CCCCCC | solubility (g/100 g solution): 2.72

----------
Experiment: xn = mol fraction of the nth substance listed, in the solute-free solvent
Details: 288.15 K; x2 = 0.7
Entry flag: Criterion met if solubility (g/100 g solution) reaches 30; Criterion not met if it does not.

// inclusive: solubility (g/100 g solution) at least 30? input: Cc1nc(C)c(C)nc1C + CO + CC#N
Criterion met

// inclusive: solubility (g/100 g solution) at least 30? input: Cl.NC(C=O)C(O)C(O)C(O)CO (stereo not given) + O + CCO
Criterion not met

// inclusive: solubility (g/100 g solution) at least 30? input: O=CC(O)C(O)C(O)CO (stereo not given) + CCO + ClCCl
Criterion not met

// inclusive: solubility (g/100 g solution) at least 30? input: Cc1nc(C)c(C)nc1C + CCCCO + CC#N
Criterion met

// inclusive: solubility (g/100 g solution) at least 30? input: O=CC(O)C(O)C(O)CO (stereo not given) + CO + ClCCl
Criterion not met
